Measured pIC50 of individual entries
target: Epidermal growth factor receptor (Homo sapiens, UniProt P00533); assay: Inhibition of human EGFR using poly[Glu:Tyr] (4:1) as substrate in presence of [gamma33P]ATP by radiometric HotSpot assay
Sequence (P00533 whole entry): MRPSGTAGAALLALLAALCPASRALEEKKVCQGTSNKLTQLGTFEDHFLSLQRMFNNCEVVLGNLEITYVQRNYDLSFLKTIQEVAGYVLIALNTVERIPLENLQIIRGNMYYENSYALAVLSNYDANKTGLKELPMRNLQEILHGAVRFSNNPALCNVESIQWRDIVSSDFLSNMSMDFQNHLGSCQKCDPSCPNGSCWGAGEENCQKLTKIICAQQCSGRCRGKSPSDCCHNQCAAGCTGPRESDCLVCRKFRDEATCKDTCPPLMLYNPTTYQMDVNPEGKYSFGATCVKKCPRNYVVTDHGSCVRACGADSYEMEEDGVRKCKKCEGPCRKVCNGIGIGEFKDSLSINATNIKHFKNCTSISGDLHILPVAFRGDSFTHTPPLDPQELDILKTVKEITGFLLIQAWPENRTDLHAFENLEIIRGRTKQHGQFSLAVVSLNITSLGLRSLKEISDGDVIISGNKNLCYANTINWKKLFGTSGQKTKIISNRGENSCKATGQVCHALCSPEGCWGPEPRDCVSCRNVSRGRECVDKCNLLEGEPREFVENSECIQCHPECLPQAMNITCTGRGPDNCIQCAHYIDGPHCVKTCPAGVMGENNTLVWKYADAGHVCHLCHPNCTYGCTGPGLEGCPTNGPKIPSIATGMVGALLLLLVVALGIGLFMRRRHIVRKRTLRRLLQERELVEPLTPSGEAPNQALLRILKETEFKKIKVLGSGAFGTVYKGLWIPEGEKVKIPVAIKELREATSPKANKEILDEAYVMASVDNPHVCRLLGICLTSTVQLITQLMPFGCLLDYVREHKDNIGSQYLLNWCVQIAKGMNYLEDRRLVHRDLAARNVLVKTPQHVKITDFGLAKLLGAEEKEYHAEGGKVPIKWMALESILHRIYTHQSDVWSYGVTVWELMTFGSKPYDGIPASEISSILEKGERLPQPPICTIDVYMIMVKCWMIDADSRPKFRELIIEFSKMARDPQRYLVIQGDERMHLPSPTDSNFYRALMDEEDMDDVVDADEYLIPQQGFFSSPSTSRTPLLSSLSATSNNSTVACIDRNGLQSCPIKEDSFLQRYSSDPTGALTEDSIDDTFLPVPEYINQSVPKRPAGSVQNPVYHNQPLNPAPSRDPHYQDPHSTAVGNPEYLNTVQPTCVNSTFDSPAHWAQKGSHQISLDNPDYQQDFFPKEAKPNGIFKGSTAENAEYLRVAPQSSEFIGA
pIC50: −log10 of the molar value.
measurement_label: pIC50

> print(dat)
                               smiles.string  numeric.result
 1  COc1cc(C(N)=O)ccc1-c1cc2c(N[C@H](CO)c3ccccc3)ncnc2[nH]1            9.30
 2  COc1cnccc1-c1cc2c(N[C@H](CO)c3ccccc3)ncnc2[nH]1            9.22
 3  CC(=O)Nc1ccc(-c2cc3c(N[C@H](C)c4ccccc4)ncnc3[nH]2)cc1            9.15
 4  COC[C@@H](Nc1ncnc2[nH]c(-c3ccccc3OC(F)F)cc12)c1ccccc1            8.89
 5  OCc1cc(-c2cc3c(N[C@H](CO)c4ccccc4)ncnc3[nH]2)ccc1F            8.80
 6  COc1cc(CNCCN2CCOCC2)ccc1-c1cc2c(N[C@H](CO)c3ccccc3)ncnc2[nH]1           10.00
 7  OCC[C@@H](Nc1ncnc2[nH]c(-c3ccccc3)cc12)c1ccccc1            9.30
 8  CCOc1ccccc1-c1cc2c(N[C@H](C)c3ccccc3)ncnc2[nH]1            9.52
 9  OCc1ccc(-c2cc3c(N[C@H](CO)c4ccccc4)ncnc3[nH]2)cc1F            9.22
10  C[C@@H](Nc1ncnc2[nH]c(-c3cccc(C(N)=O)c3)cc12)c1ccccc1            8.85

###

The molecules listed here are annotated with their inhibition.
target: Tyrosine-protein kinase ABL1 (Homo sapiens); assay: Inhibition of recombinant full length human His-tagged ABL1 cytoplasmic domain expressed in baculovirus expression system at 500 nM using Tyr 02 peptide as substrate incubated for 1 hr in presence of ATP at its Km concentration by Z'-LYTE assay relative to control
measurement_label: inhibition

> print(dat)
                              smiles.string  measurement.label  result
1  CCOc1ccccc1-c1cc2c(N[C@H](CO)c3ccccc3)ncnc2[nH]1         inhibition     33%
2  OCC[C@@H](Nc1ncnc2[nH]c(-c3ccccc3)cc12)c1ccccc1         inhibition     38%
3  OC[C@@H](Nc1ncnc2[nH]c(-c3ccccc3)cc12)c1ccccc1         inhibition     65%
4  CN(C)CCNCc1ccc(-c2cc3c(N[C@H](CO)c4ccccc4)ncnc3[nH]2)cc1F         inhibition     87%
5  COc1ccccc1-c1cc2c(N[C@H](CO)c3ccccc3)ncnc2[nH]1         inhibition     50%

###

Measured inhibition values are reported for all entries that follow.
molecular target: UniProt:P35968; assay: Inhibition of recombinant human His-tagged KDR (789 to 1356 residues) expressed in baculovirus expression system at 500 nM using Tyr 01 as substrate incubated for 1 hr in presence of ATP at its Km concentration by Z'-LYTE assay relative to control
Sequence (P35968 whole entry, the tested form may be a part): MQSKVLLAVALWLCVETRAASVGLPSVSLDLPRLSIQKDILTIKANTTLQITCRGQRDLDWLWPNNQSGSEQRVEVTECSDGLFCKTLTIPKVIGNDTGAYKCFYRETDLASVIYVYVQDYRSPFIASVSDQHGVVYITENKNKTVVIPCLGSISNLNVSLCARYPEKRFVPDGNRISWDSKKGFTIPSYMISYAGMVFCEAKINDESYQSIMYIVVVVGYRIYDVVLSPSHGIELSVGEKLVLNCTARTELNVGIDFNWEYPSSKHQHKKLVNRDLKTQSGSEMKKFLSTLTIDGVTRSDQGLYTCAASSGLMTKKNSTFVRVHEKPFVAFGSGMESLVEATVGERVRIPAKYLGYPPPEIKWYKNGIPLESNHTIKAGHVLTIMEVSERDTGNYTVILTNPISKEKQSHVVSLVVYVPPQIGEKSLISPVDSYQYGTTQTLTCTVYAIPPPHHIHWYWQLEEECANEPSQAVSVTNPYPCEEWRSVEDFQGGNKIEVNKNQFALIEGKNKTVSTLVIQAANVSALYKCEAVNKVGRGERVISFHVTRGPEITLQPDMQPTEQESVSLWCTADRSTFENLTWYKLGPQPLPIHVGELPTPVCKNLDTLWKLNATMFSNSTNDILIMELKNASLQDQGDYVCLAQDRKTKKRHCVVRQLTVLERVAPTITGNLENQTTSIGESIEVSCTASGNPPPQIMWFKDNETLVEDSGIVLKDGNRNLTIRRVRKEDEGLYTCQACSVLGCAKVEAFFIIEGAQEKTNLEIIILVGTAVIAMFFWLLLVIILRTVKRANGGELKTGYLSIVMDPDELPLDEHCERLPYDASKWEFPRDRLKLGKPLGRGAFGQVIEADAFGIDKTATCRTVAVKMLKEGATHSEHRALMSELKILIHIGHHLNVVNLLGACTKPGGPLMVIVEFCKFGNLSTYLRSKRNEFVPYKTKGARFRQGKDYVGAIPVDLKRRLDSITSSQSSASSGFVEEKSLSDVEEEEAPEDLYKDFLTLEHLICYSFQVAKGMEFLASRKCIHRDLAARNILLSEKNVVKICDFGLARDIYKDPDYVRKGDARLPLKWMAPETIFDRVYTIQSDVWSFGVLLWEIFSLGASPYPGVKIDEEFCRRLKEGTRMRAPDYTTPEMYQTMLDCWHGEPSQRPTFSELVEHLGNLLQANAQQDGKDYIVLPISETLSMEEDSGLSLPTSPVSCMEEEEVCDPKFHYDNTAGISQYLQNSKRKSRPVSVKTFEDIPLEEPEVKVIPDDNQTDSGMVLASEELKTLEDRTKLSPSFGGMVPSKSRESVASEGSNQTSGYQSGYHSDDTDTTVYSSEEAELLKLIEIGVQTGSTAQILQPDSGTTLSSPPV
measurement_label: inhibition (%)

> print(dat)
                              smiles.string  assayed.target  numeric.result
1  CN(C)CCNCc1ccc(-c2cc3c(N[C@H](CO)c4ccccc4)ncnc3[nH]2)cc1F  UniProt:P35968              53
2  CCOc1ccccc1-c1cc2c(N[C@H](CO)c3ccccc3)ncnc2[nH]1  UniProt:P35968               9
3  OCC[C@@H](Nc1ncnc2[nH]c(-c3ccccc3)cc12)c1ccccc1  UniProt:P35968               0
4  OC[C@@H](Nc1ncnc2[nH]c(-c3ccccc3)cc12)c1ccccc1  UniProt:P35968              28
5  COc1ccccc1-c1cc2c(N[C@H](CO)c3ccccc3)ncnc2[nH]1  UniProt:P35968              15
